Reference source for all entries: patent US9271962B2

- target_system: hMGL (Homo sapiens)
- Construct: A full-length cDNA clone of the human MGL transcript variant 1; made in house; host or cells: E. coli BL21 (DE3)
- Sequence (Q99685 2-303 limits assumed): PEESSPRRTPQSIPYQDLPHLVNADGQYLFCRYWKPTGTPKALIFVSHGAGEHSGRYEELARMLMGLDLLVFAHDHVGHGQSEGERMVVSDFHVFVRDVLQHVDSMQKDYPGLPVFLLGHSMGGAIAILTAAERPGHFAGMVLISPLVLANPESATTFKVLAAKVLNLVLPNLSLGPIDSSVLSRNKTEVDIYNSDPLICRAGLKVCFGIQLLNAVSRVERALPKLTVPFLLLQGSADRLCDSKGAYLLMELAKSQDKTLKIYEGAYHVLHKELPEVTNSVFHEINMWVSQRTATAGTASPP
- method_description: Fluorescent enzyme assay, MGL (AHMMCE hydrolysis)
- Assay type: biochemical
- condition_notes: 100 uM inhibitor, printed in the 1000 nM column
Assign Satisfied whenever inhibition at 100 µM does not fall below 70%; assign Not satisfied whenever it does.

>  <compound_structure>
O=C(N1CCN(Cc2ccc3ccccc3n2)CC1)n1cnc(-c2ccccc2)c1

>  <target_system>
hMGL (Homo sapiens)

>  <group>
Not satisfied

$$$$
>  <compound_structure>
CN(C)C(=O)n1nnc(Cc2ccc3ccccc3c2)n1

>  <target_system>
hMGL (Homo sapiens)

>  <group>
Not satisfied

$$$$
>  <compound_structure>
CN(C)C(=O)n1cnc2nc(OCc3ccccc3)ncc21

>  <target_system>
hMGL (Homo sapiens)

>  <group>
Satisfied

$$$$
>  <compound_structure>
CN(C)C(=O)n1nnc(Cc2cccc3ccccc23)n1

>  <target_system>
hMGL (Homo sapiens)

>  <group>
Not satisfied

$$$$

---

Catalogue of inhibition at 0.01 µM values
- target_system: ΔTM rFAAH (Rattus norvegicus, UniProt P97612)
- Construct: 15 ug of ΔTM rFAAH (cell lysate obtained by recombinant procedure); made in house
- Sequence (P97612 30-579 limits assumed): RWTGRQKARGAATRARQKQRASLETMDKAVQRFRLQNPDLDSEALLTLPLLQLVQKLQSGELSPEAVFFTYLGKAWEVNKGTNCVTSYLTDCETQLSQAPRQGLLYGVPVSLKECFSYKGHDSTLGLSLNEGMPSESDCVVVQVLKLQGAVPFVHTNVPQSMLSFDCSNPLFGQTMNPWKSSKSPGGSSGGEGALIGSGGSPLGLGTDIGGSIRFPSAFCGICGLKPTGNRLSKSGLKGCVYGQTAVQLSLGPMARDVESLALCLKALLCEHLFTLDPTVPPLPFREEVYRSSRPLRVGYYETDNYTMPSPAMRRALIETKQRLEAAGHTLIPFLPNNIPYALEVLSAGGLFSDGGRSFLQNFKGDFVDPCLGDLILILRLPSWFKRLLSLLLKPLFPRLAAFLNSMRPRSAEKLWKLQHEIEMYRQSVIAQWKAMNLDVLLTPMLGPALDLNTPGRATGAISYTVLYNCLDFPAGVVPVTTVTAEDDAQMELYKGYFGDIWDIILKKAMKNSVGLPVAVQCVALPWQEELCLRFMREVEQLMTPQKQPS
- method_description: Fluorescent enzyme assay, FAAH (AAMCA hydrolysis)
- Assay type: biochemical
- condition_notes: 10 nM inhibitor; AAMCA substrate; screening assay
readout_label: inhibition at 0.01 µM (%)

>  <compound>
CN(C)C(=O)n1nnnc1Cc1ccccc1

>  <reported_measurement>
81

$$$$
>  <compound>
CN(C(=O)n1nnc(Cc2ccc(Cl)cc2Cl)n1)c1ccccc1

>  <reported_measurement>
84

$$$$
>  <compound>
Cc1ccc(Cc2nnn(C(=O)N(C)C)n2)cc1 [Compound 26a]

>  <reported_measurement>
93

$$$$
>  <compound>
CSc1ccc(Cc2nnnn2C(=O)N(C)C)cc1 [Compound 23b]

>  <reported_measurement>
89

$$$$
>  <compound>
CN(C)C(=O)Oc1ccc(Cc2nnn(C(=O)N(C)C)n2)cc1 [Compound 36a]

>  <reported_measurement>
80

$$$$
>  <compound>
CN(CCCCN=[N+]=[N-])C(=O)n1cnc(-c2ccccc2)c1

>  <reported_measurement>
8

$$$$
>  <compound>
Cc1ccc(Cc2nnnn2C(=O)N(C)C)cc1 [Compound 26b]

>  <reported_measurement>
85

$$$$
